Measured Enzyme Activity Endpoint Assay (purified): scIgG accompanies every entry in the list below.
# EXPERIMENTAL_TARGET: pooled human IgG
# value in ng/µL; strip the unit string

Recorded results for 3 proteins are shown here.
-- ask Query (protein): PRT-63 (protein) MANQEIRYSEVTPYHVTSVWTKGVTPPANFTQGEDVFHAPYVANQGWYDITKTFNGKDDLLCGAATAGNMLHWWFDQNKEQIKRYLKEHPEKQKINFNGEQMFDVKEAIDTKNHQLDSKLFEYFKEKAFPYLSTKHLGVFPDHVLDMFINGYRLSLTNHGPTPVKEGSKDPRGGIFDDVFTRGDQSKLLTSRHDFKEKNLKEISDLIKKELTEGKALGLSHTYANVRINHVINLWGADFDSNGNLKAIYVTDSDSNASIGMKKYFVGVNSAGKVAISAKEIKEDNIGAQVLGLFTLSTGQDSWNQTN ; field requested: Enzyme Activity Endpoint Assay (purified): scIgG
-- reply 19

-- ask Entry PRT-115 (protein) MRNATEAYAKETPKTITSVWTKGVTPPTPEQFRYNGEDVIHAPYLAHQGWYDITKTFDGKDNLLCGAATAGNMLHWWFDQNKTEIERYLKKHPEKQKIIFNNQELFDLKAAIDTKDSQTNSALFNYFRDKAFPNLSARQLGVMPDLVLDMFINGYYLNVTKTQSTDVNRPYQTKDKRGGIFDAVFTRGDQTKLLTARHDLKNKTLNDISTLIKQELTEGKALALSHTYANVSISHVINLWGADFNAEGNLEAIYVTDSDSNASIGMKKYFVGVNAAGKVAISAKKIKGENIGAQVLGLFTLSSGKDIWQKLS : reported Enzyme Activity Endpoint Assay (purified): scIgG = ?
-- reply 105

-- ask Look up Enzyme Activity Endpoint Assay (purified): scIgG: PRT-83 (protein) MANQEIRYSEETPYHVTSVWTKGVTPPEKFTQGEDVFHAPYVANQGWYDITKTFNGKDDLLCGAATAGNMLHWWFDQNKDQIEAYLSKHPEKQKIMFGDQELLDVRKAINTKDSQTNSELFNYFRDKAFPNLSARRLGVMPDLVLDMFINGYRLNVTKTQTTDVNETYQEKDKRGGIFDAVFTRGDQSKLLTSRHDFKEKTLNEISDLIKKELTEGKALGISHTYANVRINHVINLWGADFNSEGNLEAIYVTDSDSNASIGMKKYFVGVNSAGKVAISAKEIEEENIGAQVLGLFTLSTGQDIWQQTN
-- reply 40

Further cases:
-- ask May I ask what Enzyme Activity Endpoint Assay (purified): scIgG has been recorded for PRT-122 (protein) MRNATEAYAKEVPKKITSVWTKGVTPLTPEQFIYQNEDVFHAPYLAHQGWYDITKTFNGKDNLLCGAATAGNMLHWWFDQNKEEIERYLSKHPEKQKIIFNNQELFDLKAAIDTKDSQTNSALFNYFRDKAFPNLSARQLGVMPDLVLDMFINGYYLNVTKTQSTDVNRPYQTKDKRGGIFDAVFTRGDQTKLLTERHDLKNKTLEEISQLIKQELTEGKALGLSHTYANVRISHVINLWGADFDAEGNLEAIYVTDSDSNASIGMKKYFVGVNASGKVAISAKKIEDDNIGAQVLGLFTLSSGKDIWEKLS ?
-- reply 0
